Target: T1, recombinant human complement component C1s (rhC1s) (human, UniProt P09871 16-688)
T1 sequence (looked up): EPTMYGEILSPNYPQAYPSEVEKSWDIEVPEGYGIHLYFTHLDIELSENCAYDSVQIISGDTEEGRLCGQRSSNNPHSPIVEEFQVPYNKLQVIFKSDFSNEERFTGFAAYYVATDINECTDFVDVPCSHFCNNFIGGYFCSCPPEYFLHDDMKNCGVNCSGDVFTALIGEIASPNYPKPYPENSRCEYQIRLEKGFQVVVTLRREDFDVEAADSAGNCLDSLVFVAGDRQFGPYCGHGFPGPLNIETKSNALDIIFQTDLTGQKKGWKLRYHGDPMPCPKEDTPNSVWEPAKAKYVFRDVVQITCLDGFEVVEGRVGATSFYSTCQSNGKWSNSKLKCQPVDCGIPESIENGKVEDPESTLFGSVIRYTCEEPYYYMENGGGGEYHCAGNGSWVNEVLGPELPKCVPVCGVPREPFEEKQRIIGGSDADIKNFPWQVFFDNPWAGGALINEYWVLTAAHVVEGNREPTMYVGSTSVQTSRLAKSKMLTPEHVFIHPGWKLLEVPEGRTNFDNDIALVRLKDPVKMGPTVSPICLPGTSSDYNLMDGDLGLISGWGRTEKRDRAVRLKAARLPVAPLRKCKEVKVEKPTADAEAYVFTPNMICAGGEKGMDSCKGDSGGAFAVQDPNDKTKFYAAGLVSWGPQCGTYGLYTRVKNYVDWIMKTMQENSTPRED
Assay: cell-based or functional assay
measured_parameter: inhibition of C1s protease activity (relative to nafamostat)

// known answers, use as guide
- antibody IPN-M8 (antibody, V domains shown, Mouse monoclonal antibody (NZBW hybridoma); Same VL and VH as IPN-M2) VH: EVKLQQSGAELVRPGASVKLSCTASGFNIKDDYIHWVKQRPEQGLEWIGRIDPADGHTKYAPKFQVKATITADTSSNTAYLQLSSLTSEDTAVYYCARYGYGREVFDYWGQGTTLTVSS VL: DIVLTQSPASLAVSLGQRATISCKASQSVDYDGDSYMNWYQQKTGQPPKILIYDASNLESGIPARFSGSGSGTDFTLNIHPVEEEDAAIYYCQQSNEDPWTFGGGTKLEIK: > 50%
- antibody IPN-M29 (antibody, V domains shown, Mouse monoclonal antibody (NZBW hybridoma)) VH: EVQLQQSGPELVKPGASVKISCKASGYSFTGFYMQWVKQSPEKNLEWIGEINPTTGDETYNQKFQAKATLTVDKSSSTAYMQLKSLTSEDSAVYFCASDFYDGSFAWFEYWGKDYLTVSA VL: DIVLTQSPVIMSASPGEKVTMTCSASSSISYIHWYQQKPGTSPKRWIYDTSKLASGVPARFSGSGSGTSYSLTISSMEAEDAATYYCHQRSSYLTFGSGTKLEIK: > 50%

Okay, next one:
**Query** Give the reported value of inhibition of C1s protease activity (relative to nafamostat) for this record: antibody IPN-M3 (antibody, V domains shown, Mouse monoclonal antibody (NZBW hybridoma); Same VL and VH as IPN-M1 and IPN-M13) VH: EVQLQQSGAELVRPGASVKLSCTASGFNIKDDYIHWVKQRPEQGLEWIGRIDPADDHTKYAPKFQDKATMTADTSSNTACLQLNSLTSEDTAVYYCAIYGSGWAWFPYWGQGTLVSVSA VL: DIVLTQSTDYLAVSLGQRATISCKASQSVDYDGDSYMNWYQQKPGQPPKLLIYAASNLESGIPARFSGSGSGTDFTLNIHPVEEEDAATYYCQQSNEDPWTFGGGTKLEIK
**Result** > 50%
